Could you please report measured viability at 24 h, 3.1 µg/mL for the items listed next?
Assay: MTT cell viability / cytotoxicity on normal fibroblasts
Format: cell-based, mouse
Conditions: mouse; 3.1 µg/mL, 24h; read-out: Cell viability on NCTC cells (%)
Give bare numbers, in %.

compound="Cc1nn(CN(Cn2nc(C)c([N+](=O)[O-])c2C)c2ccc(Br)cc2)c(C)c1[N+](=O)[O-] [5c]" reported_measurement=105
compound="Cc1nn(CN(Cn2nc(C)c([N+](=O)[O-])c2C)c2ccc(F)cc2)c(C)c1[N+](=O)[O-] [5a]" reported_measurement=97.7
compound="Cc1nn(CN(Cn2nc(C)c([N+](=O)[O-])c2C)c2ccc(I)cc2)c(C)c1[N+](=O)[O-] [5d]" reported_measurement=103
compound="Cc1nn(CN(Cn2nc(C)c([N+](=O)[O-])c2C)c2ccc(Cl)cc2)c(C)c1[N+](=O)[O-] [5b]" reported_measurement=99.1
compound="C[C@@H]1CC[C@@]2(OC1)O[C@H]1C[C@H]3[C@@H]4CC=C5C[C@@H](O[C@@H]6O[C@H](CO)[C@@H](O[C@@H]7O[C@@H](C)[C@H](O)[C@@H](O)[C@H]7O)[C@H](O)[C@H]6O[C@@H]6O[C@@H](C)[C@H](O)[C@@H](O)[C@H]6O)CC[C@]5(C)[C@H]4CC[C@]3(C)[C@H]1[C@@H]2C [dioscin, reference compound]" reported_measurement=94.3

Input line: Need viability at 24 h, 3.1 µg/mL of Cc1nn(CN(Cn2nc(C)c([N+](=O)[O-])c2C)c2cccc(Cl)c2)c(C)c1[N+](=O)[O-] [5e] , thanks.
Output line: 102

Where do these numbers come from? They come from paper PMC11672400.
